Assay: Stability test of moisture-and-heat resistance of near-IR absorption filter
Type: physicochemical
Settings: acrylic resin filter, 14 days at 60° C. and 95% RH
EXPERIMENTAL ENDPOINT: b* value, 14-day after

compound="CCCCN(CCCC)c1ccc([N+](=C2C=CC(=[N+](c3ccc(N(CCCC)CCCC)cc3)c3ccc(N(CCCC)CCCC)cc3)C=C2)c2ccc(N(CCCC)CCCC)cc2)cc1 [Compound No. 1]" value_measured=5.3
compound="N#CCCCN(CCCC#N)c1ccc([N+](=C2C=CC(=[N+](c3ccc(N(CCCC#N)CCCC#N)cc3)c3ccc(N(CCCC#N)CCCC#N)cc3)C=C2)c2ccc(N(CCCC#N)CCCC#N)cc2)cc1.O=S(=O)([N-]S(=O)(=O)C(F)(F)F)C(F)(F)F.O=S(=O)([N-]S(=O)(=O)C(F)(F)F)C(F)(F)F [Compound No. 3]" value_measured=6.1

* * *

Assay: Comparative test of molar absorption coefficient measurement
Format: physicochemical
Settings: in dichloromethane; in M-1·cm-1
EXPERIMENTAL ENDPOINT: molar absorption coefficient (ε)

compound=CCN(CC)c1ccc([N+](=C2C=CC(=[N+](c3ccc(N(CC)CC)cc3)c3ccc(N(CC)CC)cc3)C=C2)c2ccc(N(CC)CC)cc2)cc1.O=S(=O)([N-]S(=O)(=O)C(F)(F)F)C(F)(F)F.O=S(=O)([N-]S(=O)(=O)C(F)(F)F)C(F)(F)F value_measured=96,000
compound=CC(C)CN(CC(C)C)c1ccc([N+](=C2C=CC(=[N+](c3ccc(N(CC(C)C)CC(C)C)cc3)c3ccc(N(CC(C)C)CC(C)C)cc3)C=C2)c2ccc(N(CC(C)C)CC(C)C)cc2)cc1 value_measured=109,000
compound=N#CCCCN(CCCC#N)c1ccc([N+](=C2C=CC(=[N+](c3ccc(N(CCCC#N)CCCC#N)cc3)c3ccc(N(CCCC#N)CCCC#N)cc3)C=C2)c2ccc(N(CCCC#N)CCCC#N)cc2)cc1.O=S(=O)([N-]S(=O)(=O)C(F)(F)F)C(F)(F)F.O=S(=O)([N-]S(=O)(=O)C(F)(F)F)C(F)(F)F value_measured=109,000
compound="CCCCN(CCCC)c1ccc([N+](=C2C=CC(=[N+](c3ccc(N(CCCC)CCCC)cc3)c3ccc(N(CCCC)CCCC)cc3)C=C2)c2ccc(N(CCCC)CCCC)cc2)cc1.O=S(=O)([O-])c1cccc2c(S(=O)(=O)[O-])cccc12 [Compound No. 151, reference compound]" value_measured=82,000
